system-under-test: human A1 receptor subtype (Homo sapiens, UniProt P30542)
Sequence (P30542 1-326): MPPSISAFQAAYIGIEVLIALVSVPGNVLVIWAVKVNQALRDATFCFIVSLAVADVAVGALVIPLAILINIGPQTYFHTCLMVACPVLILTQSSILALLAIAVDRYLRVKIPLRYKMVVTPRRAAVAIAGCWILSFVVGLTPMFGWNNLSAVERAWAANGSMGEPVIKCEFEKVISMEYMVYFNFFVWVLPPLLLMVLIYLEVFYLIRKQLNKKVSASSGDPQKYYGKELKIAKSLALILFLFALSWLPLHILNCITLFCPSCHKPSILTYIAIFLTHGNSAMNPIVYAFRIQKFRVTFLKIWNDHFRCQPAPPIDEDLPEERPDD
experimental-protocol: biochemical
condition-summary: A1 Binding Ki (nM), Table 10, Effect of N6-Substituent
measurement-type: Ki (nM)

- compound: "Cc1[nH]c2nc(-c3ccccc3)nc(NCCNC(=O)C3CC3)c2c1C [Compound 1004]"
  Ki (nM): 32.8

[1] Cc1[nH]c2nc(-c3ccccc3)nc(NCCCCO)c2c1C [Compound 1016]
[2] Cc1[nH]c2nc(-c3ccccc3)nc(NCCNC=O)c2c1C [Compound 1001]
Field: lower recorded Ki (choose 1 or 2 ) Provide the label of your selected option as the answer. 2

[P] Cc1[nH]c2nc(-c3ccccc3)nc(NCCNC(=O)CCC(=O)O)c2c1C [Compound 1008]
[Q] CCC(=O)NCCCNc1nc(-c2ccccc2)nc2[nH]c(C)c(C)c12 [Compound 1013]
Field: lower recorded Ki (choose P or Q ) Provide the label of your selected option as the answer. P

[A] Cc1[nH]c2nc(-c3ccccc3)nc(NCCO)c2c1C [Compound 1014]
[B] CC(=O)NCCCNc1nc(-c2ccccc2)nc2[nH]c(C)c(C)c12 [Compound 1010]
Pick one: A or B . Which has the bigger Ki number? Provide the label of your selected option as the answer. B

Source listed as patent US6686366B1.
